This collection of values is drawn from paper PMC10796322.

Recorded Kd by entry
tested target: T1, Med25-ACID_(532-680), activator interaction domain (ACID) of mediator complex subunit 25 (Arabidopsis thaliana, UniProt Q7XYY2 532-680)
T1 construct: 15N- or 13C,15N-labelled in the NMR titrations; unlabelled in ITC, CEST and stopped-flow; also called AtMed25-ACID; ACID domain; source: E. coli BL21 DE3, purified (glutathione Sepharose, TEV cleavage, cation exchange, SEC); not shown: GST, N-terminal, cleaved
T1 sequence (looked up): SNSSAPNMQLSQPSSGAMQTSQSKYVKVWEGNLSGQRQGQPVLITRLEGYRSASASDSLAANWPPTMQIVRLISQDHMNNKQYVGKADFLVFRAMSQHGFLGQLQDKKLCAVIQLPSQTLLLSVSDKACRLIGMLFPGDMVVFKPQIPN
test details: ITC; 25 °C; 50 mM HEPES pH 7.4, 100 mM NaCl, 0.5 mM TCEP; ~1:10 cell to syringe concentration ratio, cell around 15 µM for high-affinity fragments; one-set-of-sites model; which protein was in the cell is not stated
reported conditions: both partners purified
assay readout: Kd (nM)

1. DREB2A_(195-276) D241A (domain or fragment, Arabidopsis thaliana, UniProt O82132 195-276, looked up, source: E. coli BL21 DE3, purified (glutathione Sepharose, TEV cleavage, SEC); not shown: GST, N-terminal, cleaved) VKADKHWLSEFEHNYWSDILKEKEKQKEQGIVETCQQQQQDSLSVAAYGWPNDVDQSHLDSSDMFDVDELLRDLNGDDVFAG :: 2000
2. DREB2A_(195-276) W244A (domain or fragment, Arabidopsis thaliana, UniProt O82132 195-276, looked up, source: E. coli BL21 DE3, purified (glutathione Sepharose, TEV cleavage, SEC); not shown: GST, N-terminal, cleaved) VKADKHWLSEFEHNYWSDILKEKEKQKEQGIVETCQQQQQDSLSVADYGAPNDVDQSHLDSSDMFDVDELLRDLNGDDVFAG :: 1900
3. DREB2A_(195-276) F274A (domain or fragment, Arabidopsis thaliana, UniProt O82132 195-276, looked up, source: E. coli BL21 DE3, purified (glutathione Sepharose, TEV cleavage, SEC); not shown: GST, N-terminal, cleaved) VKADKHWLSEFEHNYWSDILKEKEKQKEQGIVETCQQQQQDSLSVADYGWPNDVDQSHLDSSDMFDVDELLRDLNGDDVAAG :: 660
4. DREB2A_(234-335) (domain or fragment, Arabidopsis thaliana, UniProt O82132 234-335, looked up, DREB2A, Arabidopsis thaliana, AT5G05410, residues 234-335; source: E. coli BL21 DE3, purified (glutathione Sepharose, TEV cleavage, SEC); not shown: GST, N-terminal, cleaved) QDSLSVADYGWPNDVDQSHLDSSDMFDVDELLRDLNGDDVFAGLNQDRYPGNSVANGSYRPESQQSGFDPLQSLNYGIPPFQLEGKDGNGFFDDLSYLDLEN :: 440
